Test system: HL-60 cells
Experiment: Cell viability resazurin assay, HL-60 cells
Format: cell-based, human
Details: 2 h incubation, 2.5 µM, ± SD
OBSERVED PROPERTY: viability of HL-60 cells relative to control
Respond with a number, then the unit of measure.

O=C1C=CC(=O)[N-]1.[C-]#[O+].[Fe+2].c1cc[cH-]c1.c1coc(P(c2ccco2)c2ccco2)c1 ... 103.04 ± 1.98%
CCOP(OCC)OCC.O=C1C=CC(=O)[N-]1.[C-]#[O+].[Fe+2].c1cc[cH-]c1 ... 102.35 ± 0.54%
O=C1C=CC(=O)[N-]1.[C-]#[O+].[C-]#[O+].[Fe+2].c1cc[cH-]c1 ... 100.83 ± 2.04%
O=C1C=CC(=O)[N-]1.[C-]#[O+].[Fe+2].c1cc[cH-]c1.c1ccc(OP(Oc2ccccc2)Oc2ccccc2)cc1 ... 111.13 ± 4.29%

# input for lookup
Sample O=C1C=CC(=O)[N-]1.[C-]#[O+].[Fe+2].c1cc[cH-]c1.c1ccc(P(c2ccccc2)c2ccccc2)cc1 — what was its viability of HL-60 cells relative to control?
103.43 ± 2.81%
